Assay: chemical genetic growth profiling, strain panel (AID 1159580);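 note: tested at 20 µM; growth read once vehicle control cultures reached saturation at 30 °C; 1 = growth at the plate median or of vehicle wells; lower values mean less growth of the strain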
Conditions: S. cerevisiae deletion strains, growth OD, locus YMR001C, strain CDC5, stronger effect = lower value
Among all 5,500 compounds or so, about 2,000 (36%) were called active. Roughly 18% stayed inconclusive and do not appear here. The list shows a part of the results.
endpoint_name: normalized growth
Please respond with just the number, no unit label.

# annotated cases, reported normalized growth shown
Oc1ccc(N=Nc2ccccn2)c(O)c1	0.095
CNC(=O)n1nc(C)c(Cc2csc3ccc(Cl)cc23)c1C	0.988

Fill in normalized growth for record O=C(Nc1cccc2ccccc12)c1ccccc1O
0.838

Fill in normalized growth for record COc1ccc(OC)c(-c2ccn[nH]2)c1OCc1ccccc1
0.993

====

Assay: chemical genetic growth profiling, strain panel (AID 1159580);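 note: tested at 20 µM; growth read once vehicle control cultures reached saturation at 30 °C; 1 = growth at the plate median or of vehicle wells; lower values mean less growth of the strain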
Conditions: S. cerevisiae deletion strains, growth OD, locus YER015W, strain faa2, stronger effect = lower value
Screen size: about 5,500 compounds; about 2,000 (36%) were called active. Not shown: some 18% with an inconclusive outcome. The list shows a part of the results.
endpoint_name: normalized growth

# annotated cases, reported normalized growth shown
Nc1cc(-c2ccncc2)c[nH]c1=O	0.993 (inactive)
C[C@]12C=CC(=O)C=C1CCC1C3C[C@@H](O)[C@](O)(C(=O)CO)[C@@]3(C)C[C@H](O)[C@@]12F (stereo partly specified)	0.999 (inactive)
O=[N+]([O-])c1cccc2c(Br)[nH]nc12	0.973 (inactive)
COc1cc(S(C)=O)ccc1-c1nc2ncccc2[nH]1 (stereo unspecified)	0.982 (inactive)
CCN(CCCc1ccccc1)CCCc1ccccc1	0.977 (inactive)

Fill in normalized growth for record OC[C@H]1OC([S-])[C@H](O)[C@@H](O)[C@@H]1O.[Au+] (stereo partly specified)
1.01 (inactive)

Fill in normalized growth for record O=C(O)CCC(=O)Nc1ccc(S(=O)(=O)Nc2nccs2)cc1
1 (inactive)

Fill in normalized growth for record c1ccc2c(c1)CN1CCCC1=N2
0.998 (inactive)

====

Experiment: chemical genetic growth profiling, strain panel (AID 1159580);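 note: tested at 20 µM; growth read once vehicle control cultures reached saturation at 30 °C; 1 = growth at the plate median or of vehicle wells; lower values mean less growth of the strain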
Conditions: S. cerevisiae deletion strains, growth OD, locus YLR342W, strain FKS1 (second series), stronger effect = lower value
Out of some 5,500 compounds screened, about 2,000 (36%) were called active. Another 18% or so got no clear call; they are omitted. The list shows a part of the results.
Reported normalized growth values follow for various compounds
Please respond with just the number, no unit label.

CN(C)CCOC(=O)COc1ccc(Cl)cc1	0.953

Fill in normalized growth for record CC(=O)N=c1sc(S(N)(=O)=O)nn1C
1.08

Fill in normalized growth for record CN1CC(CNC(=O)OCc2ccccc2)CC2c3cccc4c3c(cn4C)CC21 (stereo not drawn)
1.07

====

Reported normalized growth values follow for various molecules
Assay: chemical genetic growth profiling, strain panel (AID 1159580);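 note: tested at 20 µM; growth read once vehicle control cultures reached saturation at 30 °C; 1 = growth at the plate median or of vehicle wells; lower values mean less growth of the strain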
Details: S. cerevisiae deletion strains, growth OD, locus YAL013W, strain DEP1, stronger effect = lower value
Hit rate of the full screen: of about 5,500 compounds, about 2,000 (36%) were called active. Another 18% or so got no clear call; they are omitted. This is one part of the list.

CN(C)N=Nc1nc[nH]c1C(N)=O	1.01 (inactive)
NS(=O)(=O)c1cccc2c1c([N+](=O)[O-])cc1nc(O)c(O)nc12	1 (inactive)
COC(=O)COc1ccc(C(C)=O)cc1	1.01 (inactive)
O=C(O)CCOc1ccc(Cl)cc1	0.956 (inactive)
CCCCN1CCC(COC(=O)c2cc(Cl)c(N)c3c2OCCO3)CC1	0.976 (inactive)
NCC(CC(=O)O)c1ccc(Cl)cc1 (configuration not stated)	1.02 (inactive)

Fill in normalized growth for record Clc1ccc(OCCOc2ccc(Cl)cc2)cc1
1.01 (inactive)
